Biological target: CDK2 (UniProt P24941)
parameter-measured: IC50 (µM)
Numeric answer only, unit µM assumed.

Tested system CDK2 (UniProt P24941); IC50 recorded for Cc1nc(C)c(-c2ccnc(Nc3ccc(Cl)cc3)n2)s1 was 9

====

Target: MAPK14 (UniProt Q16539)
Sequence (Q16539 whole entry, looked up): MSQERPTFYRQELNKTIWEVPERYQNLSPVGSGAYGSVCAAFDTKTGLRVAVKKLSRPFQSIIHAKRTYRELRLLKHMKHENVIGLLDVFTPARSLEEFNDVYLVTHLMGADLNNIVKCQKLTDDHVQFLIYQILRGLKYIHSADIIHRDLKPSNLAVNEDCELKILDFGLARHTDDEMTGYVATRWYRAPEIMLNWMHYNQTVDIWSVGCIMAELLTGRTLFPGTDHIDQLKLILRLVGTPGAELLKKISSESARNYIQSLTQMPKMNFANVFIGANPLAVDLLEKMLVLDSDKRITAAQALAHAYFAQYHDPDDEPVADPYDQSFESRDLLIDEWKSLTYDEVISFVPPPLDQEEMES
parameter-measured: IC50

Cc1nc(C)c(-c2ccnc(Nc3cccc([N+](=O)[O-])c3)n2)s1 has a reported IC50 of > 20 µM

====

Target: CDK2 (UniProt P24941)
Experiment: Enzyme Assay
Would you mind telling me the reported pIC50 of each entry?
Scale: negative log10 of molar concentration, which is what pIC50 denotes.

Form: molecule = CNc1nc(C)c(-c2ccnc(Nc3cc(F)cc(F)c3)n2)s1 ; pIC50 = 5.70

Input COCCOC(=O)c1cc(Nc2nccc(-c3sc(C)nc3C)n2)ccc1F . Output pIC50: 6.22

Entry under test: CNc1nc(C)c(-c2ccnc(Nc3cccc(Cl)c3)n2)s1 . Its pIC50 was 5.52

// CNc1nc(C)c(-c2ccnc(Nc3ccc(F)c(F)c3)n2)s1 : pIC50 value = 5.92

The value of pIC50 measured for the molecule CNc1nc(C)c(-c2ccnc(Nc3cccc(F)c3)n2)s1 turned out to be 6.22

CNc1nc(C)c(-c2ccnc(Nc3ccc(Cl)c(C(F)(F)F)c3)n2)s1 yielded pIC50 of 5.00

For reference, reported pIC50 for COC(=O)c1cc(Nc2nccc(-c3sc(C)nc3C)n2)ccc1Cl stands at 5.96

The molecule listed as Cc1nc(C)c(-c2ccnc(Nc3ccc(Cc4ccncc4)cc3)n2)s1 shows pIC50 equal to 6.15

# pIC50 (molecule: Cc1nc(C)c(-c2ccnc(Nc3ccc([N+](C)(C)C)cc3)n2)s1 ) is 5.82

For CNc1nc(C)c(-c2ccnc(Nc3ccc(OC)cc3)n2)s1 the molecule record lists pIC50 as 6.10

Cc1nc(C)c(-c2ccnc(Nc3cccc(NC(=N)N)c3)n2)s1 yielded pIC50 of 5.85

The reported value for COc1ccc(Nc2nccc(-c3sc(C)nc3C)n2)c(O)c1 in terms of pIC50 is 6.22
